Reference for the values: patent US4613618A

# assay-protocol: Toxicity of Compound No. 1 038, oral route, rats
# Format: in vivo
# test-conditions: rat, in vivo, po, female

{"smiles-text": "O=C(O)CCCNS(=O)(=O)c1cccc(C(F)(F)F)c1", "result-unit": "mg/kg", "LD50": 15500}

---

A collection of molecules and their measured % decrease in animals afflicted with lesions
# Test system: atherosclerosis lesions
# assay-protocol: Atherosclerosis inducing diet: macroscopic exams (affected animals)
# Type: in vivo, Wistar female rats
readout-label: % decrease in animals afflicted with lesions

{"molecule": "O=C(O)CCCNS(=O)(=O)c1cccnc1", "result": "6,67%"}
{"molecule": "CCOC(=O)CCCNS(=O)(=O)c1cccc([N+](=O)[O-])c1", "result": "7,14%"}
{"molecule": "CCOC(=O)C(C)(C)Oc1ccc(Cl)cc1 [CLOFIBRATE, clofibrate, reference compound]", "result": "18,18%"}
{"molecule": "O=C(O)CCCNS(=O)(=O)c1cccc(C(F)(F)F)c1", "result": "33,33%"}

---

# Test system: hyperlipidemia caused by the administration of TRITON
# assay-protocol: Triton test: lipid regulating activity in hyperlipidemia caused by TRITON W. R.
# Format: in vivo, WISTAR male rats
# test-conditions: Rattus norvegicus, po; 250 mg/kg orally; 6 hours and/or 24 hours; read-out: Total lipids, % of decrease with respect to Triton control

{"smiles-text": "CCOC(=O)CCCCCNS(=O)(=O)c1cccc(N)c1", "change in vivo at 250 mg/kg / %": -22}
{"smiles-text": "COc1cc([N+](=O)[O-])c(Cl)cc1S(=O)(=O)NCCCCCCCCCCC(=O)O", "change in vivo at 250 mg/kg / %": -17}
{"smiles-text": "COc1cc([N+](=O)[O-])ccc1S(=O)(=O)NCCCCCC(=O)O", "change in vivo at 250 mg/kg / %": -46}
{"smiles-text": "O=C(O)CCCCCCCCCCNS(=O)(=O)c1cccs1", "change in vivo at 250 mg/kg / %": -25}
{"smiles-text": "O=C(O)CCCCCNS(=O)(=O)c1cccc([N+](=O)[O-])c1", "change in vivo at 250 mg/kg / %": -45}
{"smiles-text": "CCOC(=O)CCCNS(=O)(=O)c1cc(Cl)c([N+](=O)[O-])cc1OC", "change in vivo at 250 mg/kg / %": -66}
{"smiles-text": "CCOC(=O)CCCCCCCCCCNS(=O)(=O)c1ccc(Cl)cc1", "change in vivo at 250 mg/kg / %": -32}
{"smiles-text": "O=C(O)CCCCCNS(=O)(=O)c1cccs1", "change in vivo at 250 mg/kg / %": -33}
{"smiles-text": "CCOC(=O)CCCCCCCCCCNS(=O)(=O)c1ccc([N+](=O)[O-])cc1", "change in vivo at 250 mg/kg / %": -2}
{"smiles-text": "O=C(O)CCCCCCCCCCNS(=O)(=O)c1ccc([N+](=O)[O-])cc1", "change in vivo at 250 mg/kg / %": -37}
{"smiles-text": "Nc1ccc(S(=O)(=O)NCCCCCCCCCCC(=O)O)cc1", "change in vivo at 250 mg/kg / %": -45}
{"smiles-text": "CCOC(=O)CCCCCCCCCCNS(=O)(=O)c1cccc([N+](=O)[O-])c1", "change in vivo at 250 mg/kg / %": -43}
{"smiles-text": "CCOC(=O)CCCCCCCNS(=O)(=O)c1cc(Cl)c([N+](=O)[O-])cc1OC", "change in vivo at 250 mg/kg / %": -17}
{"smiles-text": "O=C(O)CCCNS(=O)(=O)c1cccnc1", "change in vivo at 250 mg/kg / %": -24}
{"smiles-text": "CCOC(=O)CCCCCCCCCCNS(=O)(=O)c1cc(Cl)c(N)cc1OC", "change in vivo at 250 mg/kg / %": -26}
{"smiles-text": "CCOC(=O)CCCCCNS(=O)(=O)c1ccc(N)cc1OC", "change in vivo at 250 mg/kg / %": -48}
{"smiles-text": "O=C(O)CCCCCNS(=O)(=O)c1ccc([N+](=O)[O-])cc1", "change in vivo at 250 mg/kg / %": -6}
{"smiles-text": "CCOC(=O)CCCCCNS(=O)(=O)c1cccc([N+](=O)[O-])c1", "change in vivo at 250 mg/kg / %": -20}
{"smiles-text": "CCOC(=O)CCCNS(=O)(=O)c1cccc([N+](=O)[O-])c1", "change in vivo at 250 mg/kg / %": -61}
